assay explanation: logP by HPLC on reversed-phase column (C 18), EEC Directive 79/831 Annex V.A8
Assay type: physicochemical
conditions used: 40° C., 0.1% aqueous formic acid and acetonitrile, linear gradient from 10% to 90% acetonitrile
metric: LogP

Cc1nn(C)c(F)c1C(=S)N(Cc1ccc2ccccc2c1Br)C1CC1	4.39
COC(=O)C(c1cccc2ccccc12)N(C(=O)c1c(C)nn(C)c1F)C1CC1 (centres unmarked)	2.92
Cc1ccc2ccccc2c1CN(C(=O)c1cn(C)nc1C(F)F)C1CC1	3.25
Cn1cc(C(=O)N(Cc2ccc3ccccc3c2Br)C2CC2)c(C(F)F)n1	3.68
COc1nn(C)cc1C(=O)N(C1CC1)C(C)c1cccc2ccccc12 (centres unmarked)	2.86
COc1nn(C)cc1C(=S)N(Cc1ccc2ccccc2c1Br)C1CC1	4.25
COC(=O)C(c1cccc2ccccc12)N(C(=O)c1cn(C)nc1C(F)F)C1CC1 (centres unmarked)	3.02
Cc1cc(C(=O)N(C2CC2)C(C)c2ccc(Br)c3ccccc23)c(C)o1 (centres unmarked)	5.2
Cc1nn(C)c(F)c1C(=O)N(Cc1ccc(Br)c2ccccc12)C1CC1	3.62
COc1nn(C)cc1C(=O)N(Cc1ccc2ccccc2c1Br)C1CC1	3.24
Cn1cc(C(=O)N(Cc2ccc(Br)c3ccccc23)C2CC2)c(C(F)F)n1	3.69

Origin of values: patent US8226966B2
